- Tested on: IGROV1 ovarian
- measurementNotes: NCI-60 one-dose screen, 48 h (100 = growth as untreated, 0 = no growth, -100 = all killed)
- conditionInfo: 10 µM
About 83,000 compounds went through this panel and 20% of them were active in at least one assay; those are over-represented in the sample as a whole.
endpointLabel: growth (%)
Report only the number, with the unit % understood.

## Task Given the entry "COc1cc(NC(=O)CSc2nnc(-c3ccc4nc(-c5ccc(Cl)cc5)[nH]c4c3)o2)cc(OC)c1OC" , report its measured growth.
## Result 73.8

## Task Fill in: growth of "CC(C)(C)Nc1nc2cc(Cl)c(Cl)cc2nc1S(C)(=O)=O" is ___
## Result 45.2

## Task Quick check: growth of "COc1ccc(-c2cc(-c3cc(C(=O)c4ccc(Br)cc4)n4ccc(C)cc34)nc(N)c2C#N)cc1" ?
## Result 90

## Task Need growth, item "CS(=O)(=O)Nc1ccc(-c2ccc3c(c2)ncn3-c2ccc(NC(=O)Nc3ccc(Br)cc3)cc2)cc1"
## Result 26.7

## Task Sample COc1ccc(N2N=C(c3ccc4c(c3)OCCO4)CC2c2cccc(NC(=O)CCCNS(=O)(=O)c3ccc(F)cc3)c2)cc1 (stereo not drawn) — what was its growth?
## Result 81.5

## Task Recorded growth of "CCOC(=O)c1c(CSc2ccccc2)n(C)c2cc(CN(C)C)c(O)c(CN(C)C)c12" , please.
## Result 25.4

## Task Entry "Cc1ccc(-c2nc(Nc3ccc(S(N)(=O)=O)cc3)c3ccccc3n2)cc1" has what growth?
## Result 66.7

## Task Suppose we examine the compound "CN(CCO)c1oc(-c2ccccc2)nc1[P+](c1ccccc1)(c1ccccc1)c1ccccc1" ; what growth value has been reported?
## Result 6.36

## Task Record request: growth value, item CC1(c2ccccc2)NC(=O)N(CC(=O)Nc2ccc(C(=O)/C=C/c3ccc(Cl)cc3)cc2)C1=O (stereo not drawn)
## Result -19.8

## Task State the recorded growth for this entry: C=C1CCC2C3(C)COC(c4ccccc4F)OC3CCC2(C)C1C/C=C1/C(=O)OCC1O (stereo not drawn)
## Result -45.8

## Task Can you share its growth? I mean this compound: "CC(=O)Nc1nc(-c2ccc(N3CCN(C)CC3)c(NS(=O)(=O)c3cccc4c(N(C)C)cccc34)c2)cs1"
## Result 84.8

## Task Any idea what its growth is? The compound is "N#Cc1c(NC(=O)c2ccc(C(O)(C(F)(F)F)C(F)(F)F)cc2)sc2c1CCC(=O)C2"
## Result -27.6

## Task // lookup growth for "O=C(Nc1cccc(-c2cn(-c3ccc4oc(=O)ccc4c3)nn2)c1)Nc1cc(C(F)(F)F)cc(C(F)(F)F)c1"
## Result 29.9

## Task // query growth value for entry "O=C(NO)c1ccc(Cn2ccc3c(Nc4ccccc4)ncnc32)cc1"
## Result -30.8

## Task Reported growth, compound "O=C(CSc1nnc(-c2c[nH]c3ccccc23)n1-c1ccccc1)Nc1ccc(C(=O)/C=C/c2ccc(Cl)cc2)cc1" : ____
## Result 74.7

## Task Fill in the blank: the reported growth of "Cc1cc(C)cc(Oc2cccc(-c3c(C)nnn3C3CCN(CCN(C)C)CC3)n2)c1" is ____.
## Result 36.2

## Task I am curious: what growth value has been reported for "COc1ccc2[nH]c(O)c(N=NC(=O)COc3ccc(NC(=O)Nc4ccc(Cl)c(Cl)c4)cc3)c2c1" ?
## Result -4.72

## Task # lookup: growth of "CC(=O)NNc1ccc2nnc(-c3ccc(Br)cc3)n2n1"
## Result 105

---

- Tested on: SK-OV-3 ovarian
- measurementNotes: NCI-60 one-dose screen, 48 h (100 = growth as untreated, 0 = no growth, -100 = all killed)
- conditionInfo: 10 µM
This is part of a sample that, as a whole, favours compounds with a hit. Of some 83,000 tested, about 20% had one in any assay. Active and inactive are the calls of the source. The calls were made as follows: active = growth percent below 10; inactive = the rest.
endpointLabel: growth

## Task # input compound: "COc1ccc(/C=N/N=C(\C)c2ccc3c(c2)Nc2ccccc2S3)cc1O" ; wanted: its growth
## Result 87.3% (inactive)

## Task I would be grateful if you could share the reported growth for "COc1ccc2[nH]c(=O)c(CSc3cccc(N)c3)cc2c1" .
## Result 94.5% (inactive)

## Task Which growth reading was recorded for the compound C=C1CCC2C3(C)COC(c4cc(F)cc(F)c4)OC3CCC2(C)C1C/C=C1/C(=O)OCC1O (stereo not given) ?
## Result 25% (inactive)

## Task Query (compound): "O=C(CSc1ccc(-c2ccc(Cl)cc2)nn1)Nc1ccc(Cl)c(C(F)(F)F)c1" ; field requested: growth
## Result 75.4% (inactive)

## Task Would you mind telling me what growth value was observed for "Cc1ccc2nc(-c3ccc(-c4nnc(SCC(=O)Nc5ccc(Cl)cc5)o4)cc3)[nH]c2c1" ?
## Result 79.3% (inactive)

---

- System: MOLT-4 leukemia
- measurementNotes: NCI-60 one-dose screen, 48 h (100 = growth as untreated, 0 = no growth, -100 = all killed)
- conditionInfo: 10 µM
This is part of a sample that, as a whole, favours compounds with a hit. Of some 83,000 tested, about 20% had one in any assay.
growth vs 60%: at or above is yes, below is no.

## Task Could you tell me if the measured growth of "N#Cc1ccc(NC(=O)CSc2ccc(-c3ccc(Br)cc3)nn2)cc1" reaches 60% or more?
## Result no

## Task Record "O=C(NO)c1ccc(CNC(=O)[C@H]2Cc3c([nH]c4ccccc34)[C@H](c3ccccc3)N2)cc1" ; criterion: growth no lower than 60%. Met?
## Result no

## Task Assess whether reported growth for "COc1ccc(/C(C)=N/N=C2C(=O)N(C)c3ccc(Br)cc32)cc1S(N)(=O)=O" sits at 60% or higher.
## Result yes

## Task Evaluate "COc1cc2oc(-c3cccc(C(=O)Nc4ccc(Cl)cc4)c3)cc(=O)c2c(OCCNC(=O)CNC(=O)OC(C)(C)C)c1OC" : growth at minimum 60%?
## Result no

## Task Form field: growth at least 60%? Entry: "COc1ccc(NC(=O)Cn2c(/C=C/c3ccc(N(C)C)cc3)nc3ccccc3c2=O)cc1"
## Result yes

## Task Say whether "N#Cc1c(-c2ccc(F)cc2)nc(SCc2ccc([N+](=O)[O-])cc2)nc1N1CCOCC1" shows growth of 60% or more.
## Result yes

## Task // inclusive: growth at least 60%? input: "O=C(CSc1nnc(-c2c[nH]c3ccccc23)n1-c1ccccc1)Nc1ccc(C(=O)/C=C/c2ccccc2Cl)cc1"
## Result no

## Task Has "COc1ccc(C(=O)Nc2sc3c(c2C#N)CCC(=O)C3)cc1C(F)(F)F" a recorded growth greater than or equal to 60%?
## Result no

## Task Textbook exercise: given the entry O=C(c1ccc(Cl)cc1)C1[C@H](c2ccc(Br)cc2)[C@@H](c2ccccc2)NC12C(=O)Nc1ccc(Cl)cc12 (some centres undefined) , state whether its growth is greater than or equal to 60%.
## Result no

---

- Test system: CCRF-CEM leukemia
- measurementNotes: NCI-60 one-dose screen, 48 h (100 = growth as untreated, 0 = no growth, -100 = all killed)
- conditionInfo: 10 µM
Compounds without any hit were thinned out: in the full panel of roughly 83,000, 20% have a hit.
# label = condition met if growth < 20% else condition not met

## Task For COc1ccc([C@H]2C(C(=O)c3ccc(Cl)cc3)C3(N[C@@H]2c2ccccc2)C(=O)Nc2ccc(Cl)cc23)cc1 (stereo partly drawn) , is the recorded growth below the cut-off of 20%?
## Result condition not met

## Task Item "O=S(=O)(c1ccc(Cl)cc1)c1nc(-c2ccccc2)oc1S(=O)(=O)c1ccc(Cl)cc1" : growth beneath 20%, strictly?
## Result condition met

## Task Is the reported growth for "N#Cc1ccc(NC(=O)CSc2ccc(-c3ccc(Br)cc3)nn2)cc1" strictly below 20%?
## Result condition not met

## Task Consider COC(=O)CC1CC1C1Cc2c(nc(N(C)S(C)(=O)=O)nc2C(C)C)-c2ccc(F)cc21 (stereo not drawn) . Does its growth lie strictly below 20%?
## Result condition not met

## Task Identify whether the compound COc1ccc(C2N(c3ccc(Br)cc3)N=C(C(C)=O)N2[C@H]2[C@H](OC(C)=O)O[C@H](COC(C)=O)[C@@H](OC(C)=O)[C@@H]2OC(C)=O)cc1 (stereo partly drawn) records growth below 20%.
## Result condition not met

## Task # TODO verify growth < 20% strictly for this compound: "O=C(NO)c1ccc(-c2nc3ccc4[nH]ncc4c3c3c2CCCC3)cc1"
## Result condition met

## Task Quick check: growth of CC(=O)NS(=O)(=O)c1ccc(NC(=O)CSC2=NC(c3ccccc3)C(C(C)=O)=C(C)N2)cc1 (stereo not drawn) under 20%?
## Result condition not met

## Task is_below(growth, 20%) for "CC(=C(c1ccc(OCCCN(C)C)cc1)c1ccc(OCCCN(C)C)cc1)c1ccccc1" ?
## Result condition met

## Task Consider "Cn1cc(-c2cc(N)n3nc(-c4c[nH]c5ccc(Br)cc45)cc3n2)c2cc(Br)cnc21" . Does its growth lie strictly below 20%?
## Result condition met

## Task Consider "Cc1cc(C)nc(SCC(=O)Nc2ccc(S(N)(=O)=O)cc2)n1" . Does its growth lie strictly below 20%?
## Result condition not met

## Task For this compound, is growth lower than 20%? "Cc1noc2c(Cc3ccccc3)nn(CC(=O)N/N=C/c3ccc(Cl)cc3)c(=O)c12"
## Result condition not met

## Task A record lists CC1(c2ccccc2)NC(=O)N(CC(=O)Nc2ccc(C(=O)/C=C/C=C/c3ccccc3)cc2)C1=O (stereo not drawn) . Is its growth below 20%?
## Result condition not met

## Task Identify whether the compound "Nc1nc(Nc2ccccc2)nn1Cc1c(Cl)cccc1Cl" records growth below 20%.
## Result condition not met

## Task Lab note: confirm whether the reported growth for this compound is below 20%, equality not counting. compound: "Nc1n[nH]c2cccc(C#Cc3cccc(NC(=O)Nc4cc(C(F)(F)F)cc(C(F)(F)F)c4)c3)c12"
## Result condition met

## Task Determine whether this compound shows growth lower than 20% (ties excluded): "Cc1ccc(/C(CSc2nnc(-c3c[nH]c4ccccc34)n2-c2ccccc2)=N/O)cc1"
## Result condition met

## Task Given C=C[C@H]1[C@H](O[C@@H]2OC(CO)[C@@H](O)[C@H](O)C2OC(=O)c2c(O)cc(O)cc2-c2cccc(O)c2)OC=C2C(=O)OCC[C@H]21 (stereo partly drawn) , is recorded growth strictly lower than 20%?
## Result condition not met

## Task I wonder whether "O=C(Nc1ccc(I)cc1F)c1cc(-c2ccc(F)cc2F)ccc1O" has growth below 20%. Can you tell?
## Result condition met

## Task In plain terms, does "O=c1[nH]c2ccc(Cl)cc2cc1CSc1ccc(Nc2nccc(-c3ccc4ccccc4c3)n2)cc1" come in under 20% for growth?
## Result condition not met
